- tested target: T1, Recombinant human MMR (R&D systems) (human, UniProt P22897 19-1383)
- T1 construct: Antigen of the PE-ELISA and the SPR; also called hMMR; recombinant hMMR
- T1 sequence: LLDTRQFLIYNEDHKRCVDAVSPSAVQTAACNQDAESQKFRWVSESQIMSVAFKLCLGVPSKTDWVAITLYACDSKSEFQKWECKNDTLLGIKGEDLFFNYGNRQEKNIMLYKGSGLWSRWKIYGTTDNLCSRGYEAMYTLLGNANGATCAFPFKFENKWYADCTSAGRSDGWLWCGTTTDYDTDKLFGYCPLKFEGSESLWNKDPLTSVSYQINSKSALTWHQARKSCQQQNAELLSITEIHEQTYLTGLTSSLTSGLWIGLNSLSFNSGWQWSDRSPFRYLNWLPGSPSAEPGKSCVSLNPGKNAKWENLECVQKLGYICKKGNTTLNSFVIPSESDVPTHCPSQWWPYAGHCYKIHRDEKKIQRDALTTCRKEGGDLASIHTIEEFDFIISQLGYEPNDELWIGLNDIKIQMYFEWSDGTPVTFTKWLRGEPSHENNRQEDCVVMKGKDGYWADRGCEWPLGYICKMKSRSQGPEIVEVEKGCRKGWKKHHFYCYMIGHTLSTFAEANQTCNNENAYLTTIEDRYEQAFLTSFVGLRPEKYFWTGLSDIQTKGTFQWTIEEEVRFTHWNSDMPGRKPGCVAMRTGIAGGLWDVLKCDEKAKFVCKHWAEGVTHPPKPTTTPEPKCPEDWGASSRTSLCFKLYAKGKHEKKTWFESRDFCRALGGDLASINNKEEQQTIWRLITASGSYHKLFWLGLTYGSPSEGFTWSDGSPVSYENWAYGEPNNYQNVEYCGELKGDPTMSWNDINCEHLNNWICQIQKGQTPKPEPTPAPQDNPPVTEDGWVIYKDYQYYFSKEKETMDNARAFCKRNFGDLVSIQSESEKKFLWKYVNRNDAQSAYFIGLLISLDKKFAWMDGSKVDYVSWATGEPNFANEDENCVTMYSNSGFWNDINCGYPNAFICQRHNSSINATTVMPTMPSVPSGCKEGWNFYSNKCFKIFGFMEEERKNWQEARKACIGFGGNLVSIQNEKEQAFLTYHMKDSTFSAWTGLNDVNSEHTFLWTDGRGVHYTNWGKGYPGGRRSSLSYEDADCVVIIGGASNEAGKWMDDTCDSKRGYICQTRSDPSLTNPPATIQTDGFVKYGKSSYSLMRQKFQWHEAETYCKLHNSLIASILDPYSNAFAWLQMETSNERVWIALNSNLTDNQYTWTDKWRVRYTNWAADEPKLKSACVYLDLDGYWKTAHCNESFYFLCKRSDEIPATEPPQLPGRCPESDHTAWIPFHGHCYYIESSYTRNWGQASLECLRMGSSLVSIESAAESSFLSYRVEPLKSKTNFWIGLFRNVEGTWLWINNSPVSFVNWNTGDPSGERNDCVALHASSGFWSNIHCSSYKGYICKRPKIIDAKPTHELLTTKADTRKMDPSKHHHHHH
- assay remarks: SPR, BIAcore T100; human MMR on CM5 chip, sdAb as analyte
// values below are reported Kd
quantity measured: Kd (nM)

INSERT INTO results (binder, result_unit, reading) VALUES
  ('NbhmMMRm3.49 (VHH, Produced from pMECS with C-terminal HA and 6xHis tag; also called NbhMMRm3.49) VHH: QVQLQESGGGLVQPGGSLRLSCAASGFSLDYYAIGWFRQAPGKEREGISCISYKGGSTTYADSVKGRFTISKDNAKNTAYLQMNSLKPEDTGIYSCAAGFVCYNYDYWGQGTQVTVSS', 'nM', 1.8),
  ('NbhMMRm5.38 (VHH, Produced from pMECS with C-terminal HA and 6xHis tag; also called NbhmMMRm5.38; Nb5.38) VHH: QVQLQESGGGLVQAGGSLRLSCAASGFTDDDYDIGWFRQAPGKEREGVSCISSSDGSTYYADSVKGRFTISSDNAKNTVYLQMNSLKPEDTAVYYCAADFFRWDSGSYYVRGCRHATYDYWGQGTQVTVSS', 'nM', 3.3),
  ('NbhmMMRm14.93 (VHH, Produced from pMECS with C-terminal HA and 6xHis tag) VHH: QVQLQESGGGLVQAGDSLRLSCAASGRTFSINYMGWYRQAPGKQRELVAAITSGSGSTNYADSVKGRFTISRDNAKKTMYLQMNSLKPEDTAVYYCNADMDSSLSGGYVDVWGQGTQVTVSS', 'nM', 13),
  ('NbhmMMRm14.4 (VHH, Produced from pMECS with C-terminal HA and 6xHis tag) VHH: QVQLQESGGGLVQAGDSLRLSCAASGRTFSINYMGWYRQAPGKQRELVAAITSGSGSTNYADSVKGRFTISRDNAKNTMYLQMNSLKPEDTAVYYCNADMDSSLSGGYVDVWGQGTQVTVSS', 'nM', 10);
